Ref: patent US11433139B2

Test system: canine IL-31
Sequence (as listed by the source): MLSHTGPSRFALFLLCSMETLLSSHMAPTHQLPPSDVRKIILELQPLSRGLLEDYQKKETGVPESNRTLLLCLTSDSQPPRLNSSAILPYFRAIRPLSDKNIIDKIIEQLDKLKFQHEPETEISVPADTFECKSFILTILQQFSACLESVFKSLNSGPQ
Assay: Biacore binding, single test concentration of antibody, canine IL-31 surface
Test Readout: binding to canine IL-31 (Biacore)

INSERT INTO assay_data (molecule, test_readout, reported_value) VALUES
  ('ZIL94: fully canine anti IL-31 antibody, VH SEQ ID NO: 95, VL SEQ ID NO: 97 (antibody, listed as Canis familiaris, V domains shown) VH: EVQLVDSGGDLVKPGGSLRLSCVASGFTFSTYFMSWVRQAPGRGLQWVALISSDGSGTYYADAVKGRFTISRDNAKNTLYLQMNSLRAEDTAMYYCAIFWRAFNDWGQGTLVTVSS VL: QTVVIQEPSLSVSPGGTVTLTCGLNSGSVSTSNYPGWYQQTRGRTPRTIIYDTGSRPSGVPNRFSGSISGNKAALTITGAQPEDEADYYCSLYTDSDILVFGGGTHLTVL', 'binding to canine IL-31 (Biacore)', 'dual binding property'),
  ('15H05: mouse anti IL-31 monoclonal antibody, VH SEQ ID NO: 67, VL SEQ ID NO: 69 (antibody, listed as Mus musculus, V domains shown) VH: QVQLQQSAAELARPGASVKMSCKTSGYTFTSYTIHWIKQRPGQGLEWIGNINPTSGYTENNQRFKDKTTLTVDRSSNTAYLQLHSLTSEDSAVYFCARWGFKYDGEWSFDVWGAGTTVTVSS VL: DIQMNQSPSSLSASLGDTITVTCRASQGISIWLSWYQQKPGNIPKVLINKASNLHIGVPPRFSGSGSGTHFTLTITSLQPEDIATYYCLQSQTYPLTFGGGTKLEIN', 'binding to canine IL-31 (Biacore)', 'bound'),
  ('ZIL159: fully canine anti IL-31 antibody, VH SEQ ID NO: 103, VL SEQ ID NO: 105 (antibody, listed as Canis familiaris, V domains shown) VH: EVQLVESGGDLVKPAGSLRLSCVASGFTFSSYVMTWVRQAPGKGLQWVAGINSEGSRTAYADAVKGRFTISRDNAKNTLYLQIDSLRAEDTAIYYCATGDIVATGTSYWGQGTLVTVSS VL: SNVLTQPPSVSVSLGQTATISCSGETLNRFYTQWFQQKAGQAPVLVIYKDTERPSGIPDRFSGSSSGNIHTLTISGARAEDEAAYYCKSAVSIDVGVFGGGTHLTVF', 'binding to canine IL-31 (Biacore)', 'dual binding property'),
  ('11E12: mouse-derived anti IL-31 antibody previously described in U.S. Pat. No. 8,790,651; for comparison (antibody, V domains shown) VH: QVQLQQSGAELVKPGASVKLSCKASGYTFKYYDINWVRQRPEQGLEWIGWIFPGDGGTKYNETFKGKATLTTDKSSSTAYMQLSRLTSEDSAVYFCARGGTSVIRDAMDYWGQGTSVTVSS VL: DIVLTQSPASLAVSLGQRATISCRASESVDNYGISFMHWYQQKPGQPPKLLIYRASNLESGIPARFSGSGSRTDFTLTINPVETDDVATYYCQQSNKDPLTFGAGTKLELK', 'binding to canine IL-31 (Biacore)', 'bound');
